# Tested on: RARa homodimer (NR concentration 270 nM)
# protocolDetails: PBM binding z-score (relative to random genomic background probes); higher = stronger binding; sequences stand for … in GC…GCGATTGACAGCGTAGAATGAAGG
assayReadout: PBM binding z-score
Answers are plain numbers.

>  <biopolymerSequence>
AGTCAAAGTTCAGGTCGAGGTAACGTAAAGCACG

>  <PBM binding z-score>
1.49

$$$$

Give me PBM binding z-score for each of these sequences, listed below.
1. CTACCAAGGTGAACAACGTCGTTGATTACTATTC
2. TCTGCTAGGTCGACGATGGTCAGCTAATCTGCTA
3. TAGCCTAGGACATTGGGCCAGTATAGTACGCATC
4. ATACCAAGGTGATCGTGTGGTCGTTGATACTAAC

result:
1: 0.243; 2: -1.42; 3: -0.0644; 4: 0.00751

Form field PBM binding z-score, entry `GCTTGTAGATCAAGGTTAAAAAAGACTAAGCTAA` : 0.0785
